System: α6β3γ2 GABAA receptors (Rattus norvegicus, UniProt P30191+P63079)
Construct: expressed in transfected cells; host or cells: Xenopus laevis oocytes, mRNA injected
Sequence (P30191 20-453): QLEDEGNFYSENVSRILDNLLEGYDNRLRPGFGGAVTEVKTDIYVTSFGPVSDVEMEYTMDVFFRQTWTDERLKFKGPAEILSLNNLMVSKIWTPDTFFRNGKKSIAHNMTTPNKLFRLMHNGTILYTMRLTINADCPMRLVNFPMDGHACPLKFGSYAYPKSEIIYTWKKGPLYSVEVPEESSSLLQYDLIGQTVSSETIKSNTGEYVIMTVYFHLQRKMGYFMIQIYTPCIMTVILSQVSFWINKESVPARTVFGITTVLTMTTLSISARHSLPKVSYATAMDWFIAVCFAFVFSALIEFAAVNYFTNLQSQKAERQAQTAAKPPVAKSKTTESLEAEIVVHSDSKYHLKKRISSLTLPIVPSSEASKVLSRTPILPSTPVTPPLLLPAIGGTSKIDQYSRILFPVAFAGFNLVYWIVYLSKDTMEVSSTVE
Sequence (P63079 26-473): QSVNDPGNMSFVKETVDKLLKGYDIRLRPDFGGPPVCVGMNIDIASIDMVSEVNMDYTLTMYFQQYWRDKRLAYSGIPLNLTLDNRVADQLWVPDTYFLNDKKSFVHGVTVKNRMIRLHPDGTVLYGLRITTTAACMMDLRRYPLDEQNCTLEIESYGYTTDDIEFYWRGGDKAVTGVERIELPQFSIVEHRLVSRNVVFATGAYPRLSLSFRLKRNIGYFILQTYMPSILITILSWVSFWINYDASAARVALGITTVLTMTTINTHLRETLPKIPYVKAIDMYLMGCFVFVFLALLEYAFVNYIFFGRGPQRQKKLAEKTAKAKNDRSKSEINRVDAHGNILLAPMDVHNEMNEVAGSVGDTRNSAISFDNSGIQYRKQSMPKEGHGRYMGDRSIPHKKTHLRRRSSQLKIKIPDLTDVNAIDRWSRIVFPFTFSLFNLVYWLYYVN
Sequence (P18508 39-466 partner): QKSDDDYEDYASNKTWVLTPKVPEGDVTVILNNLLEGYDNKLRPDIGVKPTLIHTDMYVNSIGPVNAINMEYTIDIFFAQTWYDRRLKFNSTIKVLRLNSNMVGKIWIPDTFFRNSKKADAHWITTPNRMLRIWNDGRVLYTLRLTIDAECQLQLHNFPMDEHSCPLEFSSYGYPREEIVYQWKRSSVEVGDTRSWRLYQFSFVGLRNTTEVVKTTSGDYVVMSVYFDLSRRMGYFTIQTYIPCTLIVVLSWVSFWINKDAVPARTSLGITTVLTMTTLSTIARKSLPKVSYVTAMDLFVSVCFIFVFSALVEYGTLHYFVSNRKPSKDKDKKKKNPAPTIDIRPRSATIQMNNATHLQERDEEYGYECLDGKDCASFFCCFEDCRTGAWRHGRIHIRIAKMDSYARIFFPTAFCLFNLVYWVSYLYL
Assay Protocol: Two electrode voltage clamp in Xenopus laevis oocytes, α6β3γ2
Format: cell-based
Settings: co-applied with GABA EC3-5
From the text: cDNA’s of rat GABAA receptor subunits α1, α4, β1, β2, β3 and γ2S were cloned as described. cDNAs of the rat subunits α2, α3 and α5 were gifts from P. Malherbe, that of α6 and γ1 were gifts of P. Seeburg and that of δ was a gift of C. Czajkowski. The mutants were constructed using the Q5 Site-Directed Mutagenesis Kit (New England Biolabs) following manufacturer’s instruction. […]
Recorded Endpoint: EC50

structure_smiles_string=Cc1ccc(-n2nc3c4cc(Cl)ccc4[nH]cc-3c2=O)cc1 assay_result="> 5 µM"
